compounds and their reported logP
Assay: Lipophilicity, log P of the compound
Type: physicochemical
Settings: octanol/water

Record smiles	logP
C[C@@]12CC[C@@H]3[C@@H]4CC[C@H](O)C[C@H]4CC[C@H]3[C@@H]1CC(=O)C2	3.24
CC(=O)[C@H]1CC[C@H]2[C@@H]3CC[C@H]4C[C@H](O)CC[C@]4(C)[C@H]3CC[C@]12C	4.46
C[C@@]12CC[C@H]3[C@@H](CC[C@@H]4C[C@@H](O)CC[C@]43C)[C@@H]1CC(=O)C2	3.71
CO[C@H]1[C@H]2CC[C@H]3[C@@H]4CC(=O)C[C@]4(C)CC[C@@H]3[C@]2(C)CC[C@@H]1O	3.19
O=C1C[C@@H]2CC[C@H]3[C@@H](CC[C@@H]4C[C@@H](O)CC[C@H]43)[C@@H]2C1	2.77

====

Experiment: Displacement of [35S]TBPS from rat picrotoxin binding site of GABAA receptor after 2 hrs by scintillation counting analysis
compounds and their reported IC50
Result type: IC50 (nM)

Record smiles	Numeric readout
CO[C@@H]1C[C@]2(C)[C@H](CC[C@H]3[C@@H]4CC(=O)C[C@]4(C)CC[C@@H]32)C[C@H]1O	3030
CO[C@H]1C[C@@]2(C)[C@@H](CC[C@H]3[C@@H]4CC(=O)C[C@@]4(C)CC[C@@H]32)C[C@@H]1O	1270
C[C@@]12CC[C@@H]3[C@@H]4CC[C@H](O)C[C@H]4CC[C@H]3[C@@H]1CC(=O)C2	238
CO[C@H]1[C@H](O)CC[C@]2(C)[C@H]3CC[C@]4(C)CC(=O)C[C@H]4[C@@H]3CC[C@@H]12	6680

====

Assay: Displacement of [35S]TBPS from rat picrotoxin binding site of GABAA receptor after 2 hrs by scintillation counting analysis
Result type: IC50 (nM)

Record smiles	Unit info	Numeric readout
C[C@@]12CC[C@H]3[C@@H](CC[C@@H]4C[C@@H](O)CC[C@]43C)[C@@H]1CC(=O)C2	nM	81
CC(=O)[C@H]1CC[C@H]2[C@@H]3CC[C@H]4C[C@H](O)CC[C@]4(C)[C@H]3CC[C@]12C	nM	74
C[C@@]12CC[C@H](O)C[C@H]1CC[C@H]1[C@@H]3CC(=O)C[C@@H]3CC[C@@H]12	nM	1520
C[C@]12CC[C@H]3[C@@H](CC[C@H]4C[C@H](O)CC[C@@]43C)[C@@H]1CC(=O)C2	nM	895

====

compounds and their reported Ratio
Organism: Rattus norvegicus
Assay: […] of rat alpha1beta2gamma2L GABAA receptor expressed in Xenopus laevis oocytes assessed as chloride current elicitation at 10 uM by two-electrode voltage clamp technique relative to GABA
Type: cell-based
Result type: Ratio

Compound	Numeric readout
CO[C@@H]1C[C@]2(C)[C@H](CC[C@H]3[C@@H]4CC(=O)C[C@]4(C)CC[C@@H]32)C[C@H]1O	0.01
C[C@@]12CC[C@@H]3[C@@H]4CC[C@H](O)C[C@H]4CC[C@H]3[C@@H]1CC(=O)C2	0.02
C[C@]12CC[C@H]3[C@@H](CC[C@H]4C[C@H](O)CC[C@@]43C)[C@@H]1CC(=O)C2	-0.02
C[C@@]12CC[C@H](O)C[C@H]1CC[C@H]1[C@@H]3CC(=O)C[C@@H]3CC[C@@H]12	0.01
CO[C@H]1C[C@@]2(C)[C@@H](CC[C@@H]3[C@@H]2CC[C@]2(C)C(=O)CC[C@@H]32)C[C@@H]1O	0.08
CO[C@H]1[C@H]2CC[C@H]3[C@@H]4CC(=O)C[C@]4(C)CC[C@@H]3[C@]2(C)CC[C@@H]1O	0.08
CO[C@@H]1C[C@]2(C)[C@H](CC[C@@H]3[C@@H]2CC[C@@]2(C)C(=O)CC[C@@H]32)C[C@H]1O	-0.01
CO[C@H]1[C@H](O)CC[C@]2(C)[C@H]3CC[C@]4(C)C(=O)CC[C@H]4[C@@H]3CC[C@@H]12	0.12
O=C1C[C@@H]2CC[C@H]3[C@@H](CC[C@@H]4C[C@@H](O)CC[C@H]43)[C@@H]2C1	0
C[C@@]12CC[C@H]3[C@@H](CC[C@@H]4C[C@@H](O)CC[C@]43C)[C@@H]1CC(=O)C2	0.15
CO[C@H]1[C@H]2CC[C@@H]3[C@H](CC[C@@]4(C)C(=O)CC[C@@H]34)[C@]2(C)CC[C@@H]1O	0.05
CO[C@H]1[C@H](O)CC[C@]2(C)[C@H]3CC[C@]4(C)CC(=O)C[C@H]4[C@@H]3CC[C@@H]12	0.02
CO[C@H]1C[C@@]2(C)[C@@H](CC[C@H]3[C@@H]4CC(=O)C[C@@]4(C)CC[C@@H]32)C[C@@H]1O	0.01
CC(=O)[C@H]1CC[C@H]2[C@@H]3CC[C@H]4C[C@H](O)CC[C@]4(C)[C@H]3CC[C@]12C [BREXANOLONE]	0.37
